# Test system: Neisseria gonorrhoeae strain NCCP11945
# test: Measurement of bactericidal action (log reduction)
# Assay type: cell-based
# statedConditions: strain NCCP11945, 1 mM, 2 minutes
measuredParameter: Log reduction of Neisseria gonorrhoeae

- CCCCCCCCCCCCCC(=O)O: 1.5

Here is the next item to consider.
Using the record for CCCCCCCCCCCCCC(=O)[O-].[Na+] [Sodium myristate] , report its Log reduction of Neisseria gonorrhoeae.
0.5

====

# Test system: Neisseria gonorrhoeae strain NCCP11945
# test: Growth inhibition screen of organic acids
# Assay type: cell-based
# statedConditions: strain NCCP11945, in vitro, 1 mM
measuredParameter: Inhibits growth of Neisseria gonorrhoeae

// solved cases for Inhibits growth of Neisseria gonorrhoeae follow
• CCCCCC[C@@H](O)C/C=C\CCCCCCCC(=O)O [Ricinoleic acid] = Yes
• CCCCCCCCCCCC(=O)O [Lauric acid 12:0, dodecanoic acid] = Yes
• CCCCCCCCCCCCCCCC(=O)OC(C)C [Isopropyl palmitate] = No
• CCCCC/C=C\C/C=C\CCCCCCCC(=O)O [Linoleic acid 18:2 cΔ9,12, Linoleic acid] = Yes
• CCCCCCCCCCCC(=O)[O-].[Na+] [Sodium dodecanoate] = Yes
• O=C(O)CCCCCCCCC(=O)O [Sebacic acid] = No
• CCCC/C=C\CCCCCCCC(=O)O [Myristoleic acid 14:1 cΔ9, (Z)-tetradec-9-enoic acid] = Yes
• CCCCCCCCCC(=O)OCC(O)CO (stereo not shown) [Monocaprin C10, Monocaprin] = Yes
• CCCCCCCCCCCCCC(=O)O [Myristic acid 14:0, Myristic acid] = Yes

Using the record for CCCCCCCCCCC(=O)O [Undecanoic acid 11:0, Undecanoic acid] , report its Inhibits growth of Neisseria gonorrhoeae.
Yes

====

# HC50 at 1 h values compiled below
# test: in vitro
# Type: cell-based, bovine
# statedConditions: red blood cells; bovine RBCs, shaken 1 hour at room temperature; read-out: H50

// solved cases for HC50 at 1 h follow
• CCCCCCCCCC(=O)OCC(O)CO (stereo not drawn) [Monocaprin C10, Monocaprin] = 1.6 to 2.4 mM
• CCCCCCCCCCCCC(=O)O [Tridecanoic acid 13:0, Tridecanoic acid] = > 4.67 mM
• CC/C=C\C/C=C\C/C=C\CCCCCCCC(=O)O [Linolenic acid 18:3 cΔ9,12,15, α-linolenic acid] = 0.07 to 0.14 mM

Using the record for CCCC/C=C\CCCCCCCC(=O)O [Myristoleic acid 14:1 cΔ9, (Z)-tetradec-9-enoic acid] , report its HC50 at 1 h.
2.6 to 3.5 mM

Using the record for CCCCCC/C=C\CCCCCCCC(=O)O [Palmitoleic acid 16:1 cΔ9, (9Z)-hexadec-9-enoic acid] , report its HC50 at 1 h.
0.08 to 0.16 mM

Using the record for CCCCCCCCCCCC(=O)O [Lauric acid 12:0, dodecanoic acid] , report its HC50 at 1 h.
1 to 2 mM

====

# test: in vitro
# Type: cell-based, bovine
# statedConditions: red blood cells; bovine RBCs, shaken 1 hour at room temperature; read-out: H50 (mg/L)
measuredParameter: HC50 at 1 h

// solved cases for HC50 at 1 h follow
* CCCCCCCCCC(=O)OCC(O)CO (stereo not drawn) | 400 to 600 mg/L
* CCCCCC/C=C\CCCCCCCC(=O)O | 20 to 40 mg/L
* CCCCCCCCCCCCC(=O)O | > 1000 mg/L
* CCCCCCCCCCCC(=O)O | 200 to 400 mg/L

Using the record for CCCC/C=C\CCCCCCCC(=O)O [Myristoleic acid 14:1 cΔ9, (Z)-tetradec-9-enoic acid] , report its HC50 at 1 h.
600 to 800 mg/L

Using the record for CC/C=C\C/C=C\C/C=C\CCCCCCCC(=O)O , report its HC50 at 1 h.
20 to 40 mg/L
